This listing pairs compounds with measured Kp uu at 1 h.
Assay: Rat cerebrospinal fluid (CSF) pharmacokinetic properties
Assay type: in vivo
Settings: male, Sprague-Dawley, CSF and plasma (unbound), unbound CSF/unbound plasma ratio, rats, PO 10 mg/kg, 1 h, compounds in Table IB
A bare number is all that is needed in reply.

Query :: Need Kp uu at 1 h, item Cc1n[nH]c(-c2nc(Cc3cncnc3)c3ccccn23)n1 [Compound I-5]
Result :: 1.08

Query :: Need Kp uu at 1 h, item Fc1ccc2c(Cc3cncnc3)nc(-c3nc(C(F)(F)F)n[nH]3)n2c1 [Compound I-12]
Result :: 0.16

---

Target: sGC (Rattus norvegicus, UniProt P20595)
Construct: Rat primary neurons were isolated from fetuses of 18-day pregnant Sprague-Dawley females; endogenous in cells; host or cells: Primary rat hippocampal neurons (E18 Sprague-Dawley fetuses)
Sequence (P20595 whole entry): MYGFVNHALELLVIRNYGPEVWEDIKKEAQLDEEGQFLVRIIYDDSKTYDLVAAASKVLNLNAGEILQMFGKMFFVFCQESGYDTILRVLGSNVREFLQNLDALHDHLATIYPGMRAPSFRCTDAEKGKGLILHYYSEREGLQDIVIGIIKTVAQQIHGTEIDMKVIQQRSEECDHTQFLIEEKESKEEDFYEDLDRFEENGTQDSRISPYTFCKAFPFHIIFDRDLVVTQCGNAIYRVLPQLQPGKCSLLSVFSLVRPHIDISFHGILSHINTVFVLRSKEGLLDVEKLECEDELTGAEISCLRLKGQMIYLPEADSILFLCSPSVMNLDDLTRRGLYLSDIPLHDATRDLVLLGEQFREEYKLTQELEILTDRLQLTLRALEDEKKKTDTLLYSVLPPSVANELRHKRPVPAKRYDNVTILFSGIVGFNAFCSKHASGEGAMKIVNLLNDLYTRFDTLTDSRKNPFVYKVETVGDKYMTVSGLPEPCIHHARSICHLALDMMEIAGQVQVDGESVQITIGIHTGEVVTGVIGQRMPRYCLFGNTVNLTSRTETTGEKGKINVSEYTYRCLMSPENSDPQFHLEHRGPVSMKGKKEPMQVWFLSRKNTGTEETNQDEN
Assay: cGMP neuronal cell-based assay
Conditions: rat primary hippocampal neurons; 30 μM DETA-NO; cGMP by LC-MS/MS; normalized to 10 μM Compound Y; compounds in Table IB; read-out: sGC-Neuron Abs EC50
pEC50: −log10 of the molar value.
RECORDED_METRIC: pEC50

- FC(F)(F)c1n[nH]c(-c2nc(Cc3cncnc3)c3cc(Cl)ccn23)n1: ≥ 7.00

Now look at this one.
Query :: // fetch sGC (Rattus norvegicus, UniProt P20595) pEC50 for `FC(F)(F)c1n[nH]c(-c2nc(CCC(F)(F)C(F)(F)F)c3ccccn23)n1`
Result :: 6.00 to 7.00

---

Assay: Rat cerebrospinal fluid (CSF) pharmacokinetic properties
Format: in vivo
Settings: male, Sprague-Dawley, CSF and plasma (unbound), unbound CSF/unbound plasma ratio, rats, PO 10 mg/kg, 1 h, compounds in Table IA
This listing pairs compounds with measured Kp uu at 1 h.
A bare number is all that is needed in reply.

Example entries begin here.
* Fc1cncc(Cn2nc(-c3nc(C(F)(F)F)n[nH]3)c3cccnc32)c1 [Compound I-1] | 0.24
* Cc1ncc(Cn2nc(-c3nc(C(F)(F)F)n[nH]3)c3ccccc32)cn1 [Compound I-62] | 0.62

Query :: Need Kp uu at 1 h, item Fc1cccc(Cc2nn(-c3nc(C(F)(F)F)n[nH]3)c3cccnc23)c1F [Compound I-105]
Result :: 2.2

Query :: Need Kp uu at 1 h, item Fc1cccc(Cn2nc(-c3nc(Cl)n[nH]3)c3cccnc32)c1F [Compound I-86]
Result :: 2.41

---

Test: Rat cerebrospinal fluid (CSF) pharmacokinetic properties
Assay type: in vivo
Details: male, Sprague-Dawley, CSF and plasma (unbound), unbound CSF/unbound plasma ratio, rats, PO 10 mg/kg, 1 h, compounds in Table IA
RECORDED_METRIC: Kp uu at 1 h
A bare number is all that is needed in reply.

Example entries begin here.
- FC(F)(F)c1n[nH]c(-c2nn(Cc3cncnc3)c3ncccc23)n1: 1.98
- N#Cc1n[nH]c(-c2nn(Cc3cccc(F)c3F)c3ncccc23)n1: 0.52
- Fc1ccccc1Cn1nc(-c2nc(C(F)F)n[nH]2)c2cccnc21: 3.37
- Fc1ccccc1Cn1nc(-c2nc(C3CC3(F)F)n[nH]2)c2cccnc21 (centres unmarked): 1.54
- Fc1ccccc1Cc1nn(-c2nc(C(F)F)n[nH]2)c2cccnc12: 2.81
- FC(F)(F)c1n[nH]c(-c2nn(Cc3ccccc3)c3ncccc23)n1: 1.57
- FC(F)(F)c1n[nH]c(-c2nn(CCC(F)(F)C(F)(F)F)c3ncccc23)n1: 0.24
- Fc1ccccc1Cc1nn(-c2nc(C(F)(F)F)n[nH]2)c2cccnc12: 3.84

Query :: Need Kp uu at 1 h, item `OCc1n[nH]c(-c2nn(Cc3ccccc3F)c3ncccc23)n1`
Result :: 0.54

Query :: Need Kp uu at 1 h, item `N#Cc1n[nH]c(-c2nn(Cc3ccccc3F)c3ncccc23)n1`
Result :: 0.36

Query :: Need Kp uu at 1 h, item `Fc1cccc(Cn2nc(-c3nc(C(F)(F)F)n[nH]3)c3cccnc32)c1F`
Result :: 2.52

Source: patent US12435080B2
